Data provenance: the supplement of paper PMC11061612

Tested on: KYAE-1 (Esophageal Adenocarcinoma)
Test: combination Emax (second highest fraction inhibited in the dose matrix, 72 h); higher = more inhibition; extreme values may be limits of the assay
As shown below, each of these molecules has a reported combination Emax value.
endpoint: combination Emax

- O=C(c1cc(Cc2n[nH]c(=O)c3ccccc23)ccc1F)N1CCN(C(=O)C2CC2)CC1 [Olaparib] + CC1(C)CCC(CN2CCN(c3ccc(C(=O)NS(=O)(=O)c4ccc(NCC5CCOCC5)c([N+](=O)[O-])c4)c(Oc4cnc5[nH]ccc5c4)c3)CC2)=C(c2ccc(Cl)cc2)C1 [Venetoclax] (first compound max 10 µM, 7x7, partner max 1 µM): 0.154
- O=C(c1cc(Cc2n[nH]c(=O)c3ccccc23)ccc1F)N1CCN(C(=O)C2CC2)CC1 [Olaparib] + Cc1c2c(nn1C)CSCc1cc(n(C)n1)CSc1cc(c3ccccc3c1)OCCCc1c(C(=O)O)n(C)c3c-2c(Cl)ccc13 [AZD5991] (first compound max 10 µM, 7x7, partner max 1 µM): 0.231
- CC1(C)CCC(CN2CCN(c3ccc(C(=O)NS(=O)(=O)c4ccc(NCC5CCOCC5)c([N+](=O)[O-])c4)c(Oc4cnc5[nH]ccc5c4)c3)CC2)=C(c2ccc(Cl)cc2)C1 [Venetoclax] + C=CCn1c(=O)c2cnc(Nc3ccc(N4CCN(C)CC4)cc3)nc2n1-c1cccc(C(C)(C)O)n1 [AZD1775] (first compound max 1 µM, partner max 1 µM): 0.706
- Cc1c2c(nn1C)CSCc1cc(n(C)n1)CSc1cc(c3ccccc3c1)OCCCc1c(C(=O)O)n(C)c3c-2c(Cl)ccc13 [AZD5991] + CN(C)CCCOc1ccc(-c2ccc3ncc4c(c3c2)n(C2CCOCC2)c(=O)n4C)cn1 [AZD0156] (first compound max 1 µM, 7x7, partner max 1 µM): 0.177

====

As shown below, each of these compounds has a reported Bliss excess value.
Test system: LS-123 (Colorectal Carcinoma)
Test: Bliss excess, mean over the matrix (fraction); higher = more synergy
endpoint: Bliss excess

- Cc1nc(Nc2ncc(C(=O)Nc3c(C)cccc3Cl)s2)cc(N2CCN(CCO)CC2)n1 [Dasatinib] + CC(=O)Nc1cccc(-n2c(=O)n(C3CC3)c(=O)c3c(Nc4ccc(I)cc4F)n(C)c(=O)c(C)c32)c1 [Trametinib] (first compound max 2 µM, 7x7, partner max 1 µM): 0.0891
- C=CCn1c(=O)c2cnc(Nc3ccc(N4CCN(C)CC4)cc3)nc2n1-c1cccc(C(C)(C)O)n1 [AZD1775] + C1CN(CCC1(C(=O)N[C@@H](CCO)C2=CC=C(C=C2)Cl)N)C3=NC=NC4=C3C=CN4 [Capivasertib] (first compound max 3 µM, partner max 3 µM): -0.0341
- NC1(C(=O)N[C@@H](CCO)c2ccc(Cl)cc2)CCN(c2ncnc3[nH]ccc23)CC1 [Capivasertib] + C[C@@H]1COCCN1C2=NC(=NC(=C2)C3(CC3)[S@](=N)(=O)C)C4=C5C=CNC5=NC=C4 [AZD6738] (first compound max 10 µM, 7x7, partner max 10 µM): 0.0058
- COc1nnc2ccc(N3CCC(c4ccc(OCCN5CCN(C)C(=O)[C@H]5C)cc4)CC3)nn12 [AZD5153] + Cc1c2c(nn1C)CSCc1cc(n(C)n1)CSc1cc(c3ccccc3c1)OCCCc1c(C(=O)O)n(C)c3c-2c(Cl)ccc13 [AZD5991] (first compound max 1 µM, 7x7, partner max 1 µM): -0.0249
- C[C@@H]1COCCN1c1cc(C2([S@](C)(=N)=O)CC2)nc(-c2ccnc3[nH]ccc23)n1 [AZD6738] + Nc1ccn([C@@H]2O[C@H](CO)[C@@H](O)C2(F)F)c(=O)n1 [Gemcitabine] (first compound max 10 µM, 7x7, partner max 0.3 µM): 0.104
- CN(C)CCCOc1ccc(-c2ccc3ncc4c(c3c2)n(C2CCOCC2)c(=O)n4C)cn1 [AZD0156] + CCN(CCO)CCCOc1ccc2c(Nc3cc(CC(=O)Nc4cccc(F)c4)[nH]n3)ncnc2c1 [AZD2811] (first compound max 1 µM, 7x7, partner max 1 µM): -0.0409
- N#Cc1cnc(Nc2cc(NC[C@H]3CNCCO3)c(C(F)(F)F)cn2)cn1 [SRA737] + C=CCn1c(=O)c2cnc(Nc3ccc(N4CCN(C)CC4)cc3)nc2n1-c1cccc(C(C)(C)O)n1 [AZD1775] (first compound max 10 µM, partner max 1 µM): -0.0025
- C[C@@H]1COCCN1c1cc(C2([S@](C)(=N)=O)CC2)nc(-c2ccnc3[nH]ccc23)n1 [AZD6738] + O=C(c1cc(Cc2n[nH]c(=O)c3ccccc23)ccc1F)N1CCN(C(=O)C2CC2)CC1 [Olaparib] (first compound max 10 µM, 7x7, partner max 10 µM): 0.0192
- C[C@@H]1COCCN1c1cc(C2([S@](C)(=N)=O)CC2)nc(-c2ccnc3[nH]ccc23)n1 [AZD6738] + C1CC(C1)(C(=O)[O-])C(=O)[O-].N.N.[Pt+2] [Carboplatin] (first compound max 10 µM, 7x7, partner max 10 µM): -0.0239
- CC(=O)c1c(C)c2cnc(Nc3ccc(N4CCNCC4)cn3)nc2n(C2CCCC2)c1=O [Palbociclib] + CC1(C)CCC(CN2CCN(c3ccc(C(=O)NS(=O)(=O)c4ccc(NCC5CCOCC5)c([N+](=O)[O-])c4)c(Oc4cnc5[nH]ccc5c4)c3)CC2)=C(c2ccc(Cl)cc2)C1 [Venetoclax] (first compound max 10 µM, 7x7, partner max 1 µM): -0.0324
- NC1(C(=O)N[C@@H](CCO)c2ccc(Cl)cc2)CCN(c2ncnc3[nH]ccc23)CC1 [Capivasertib] + Cn1cnc2c(F)c(Nc3ccc(Br)cc3Cl)c(C(=O)NOCCO)cc21 [Selumetinib] (first compound max 10 µM, 7x7, partner max 10 µM): 0.0583
- CS(=O)(=O)CCNCc1ccc(-c2ccc3ncnc(Nc4ccc(OCc5cccc(F)c5)c(Cl)c4)c3c2)o1 [Lapatinib] + C[C@@H](Oc1cc(-c2cnn(C3CCNCC3)c2)cnc1N)c1c(Cl)ccc(F)c1Cl [Crizotinib] (first compound max 10 µM, 7x7, partner max 10 µM): -0.0052
- Cc1cc2ncnn2cc1Nc1ncc2c(n1)n(C1CCOCC1)c(=O)n2C [AZD7648] + O=C(c1cc(Cc2n[nH]c(=O)c3ccccc23)ccc1F)N1CCN(C(=O)C2CC2)CC1 [Olaparib] (first compound max 10 µM, 7x7, partner max 10 µM): -0.0221
- CC1(C)CCC(CN2CCN(c3ccc(C(=O)NS(=O)(=O)c4ccc(NCC5CCOCC5)c([N+](=O)[O-])c4)c(Oc4cnc5[nH]ccc5c4)c3)CC2)=C(c2ccc(Cl)cc2)C1 [Venetoclax] + C[C@@H]1COCCN1C2=NC(=NC(=C2)C3(CC3)[S@](=N)(=O)C)C4=C5C=CNC5=NC=C4 [AZD6738] (first compound max 1 µM, 7x7, partner max 10 µM): -0.0395

====

Test system: NCI-H524 (Small Cell Lung Carcinoma)
Assay: Bliss excess, mean over the matrix (fraction); higher = more synergy
As shown below, each of these molecules has a reported Bliss excess value.
endpoint: Bliss excess

* O=C(c1cc(Cc2n[nH]c(=O)c3ccccc23)ccc1F)N1CCN(C(=O)C2CC2)CC1 [Olaparib] + CC1(C)CCC(CN2CCN(c3ccc(C(=O)NS(=O)(=O)c4ccc(NCC5CCOCC5)c([N+](=O)[O-])c4)c(Oc4cnc5[nH]ccc5c4)c3)CC2)=C(c2ccc(Cl)cc2)C1 [Venetoclax] (first compound max 10 µM, 7x7, partner max 1 µM) | -0.0173
* Cc1c2c(nn1C)CSCc1cc(n(C)n1)CSc1cc(c3ccccc3c1)OCCCc1c(C(=O)O)n(C)c3c-2c(Cl)ccc13 [AZD5991] + CC(=O)O[C@H]1C(=O)[C@@]2(C)[C@H]([C@H](OC(=O)c3ccccc3)[C@]3(O)C[C@H](OC(=O)[C@H](O)[C@@H](NC(=O)c4ccccc4)c4ccccc4)C(C)=C1C3(C)C)[C@]1(OC(C)=O)CO[C@@H]1C[C@@H]2O [Paclitaxel] (first compound max 1 µM, 7x7, partner max 3 µM) | -0.0264
* Cc1cc2ncnn2cc1Nc1ncc2c(n1)n(C1CCOCC1)c(=O)n2C [AZD7648] + COc1cc([C@@H]2c3cc4c(cc3[C@@H](O[C@@H]3O[C@@H]5CO[C@@H](C)O[C@H]5[C@H](O)[C@H]3O)[C@H]3COC(=O)[C@H]23)OCO4)cc(OC)c1O [Etoposide] (first compound max 10 µM, 7x7, partner max 10 µM) | 0.101

====

System: HeLa (Cervical Carcinoma)
Assay: Bliss excess, mean over the matrix (fraction); higher = more synergy
endpoint: Bliss excess

- Cc1cc2ncnn2cc1Nc1ncc2c(n1)n(C1CCOCC1)c(=O)n2C [AZD7648] + C=CCn1c(=O)c2cnc(Nc3ccc(N4CCN(C)CC4)cc3)nc2n1-c1cccc(C(C)(C)O)n1 [AZD1775] (first compound max 10 µM, partner max 1 µM): -0.0542
- C[C@@H]1COCCN1c1cc(C2([S@](C)(=N)=O)CC2)nc(-c2ccnc3[nH]ccc23)n1 [AZD6738] + O=C(c1cc(Cc2n[nH]c(=O)c3ccccc23)ccc1F)N1CCN(C(=O)C2CC2)CC1 [Olaparib] (first compound max 10 µM, 7x7, partner max 10 µM): 0.0497
- COc1cccc(OCCCN)c1-c1cc(Nc2cnc(C#N)cn2)n[nH]1 [Prexasertib] + CCc1c2c(nc3ccc(O)cc13)-c1cc3c(c(=O)n1C2)COC(=O)[C@]3(O)CC [SN-38] (first compound max 1 µM, 7x7, partner max 0.3 µM): 0.0837
- CC1(C)CCC(CN2CCN(c3ccc(C(=O)NS(=O)(=O)c4ccc(NCC5CCOCC5)c([N+](=O)[O-])c4)c(Oc4cnc5[nH]ccc5c4)c3)CC2)=C(c2ccc(Cl)cc2)C1 [Venetoclax] + CCN(CCO)CCCOc1ccc2c(Nc3cc(CC(=O)Nc4cccc(F)c4)[nH]n3)ncnc2c1 [AZD2811] (first compound max 1 µM, 7x7, partner max 1 µM): 0.0336
